Below is a list of entries, each paired with its recorded pKd value.
# target system: HTRA1, Q92743
# Sequence (Q92743 360-477): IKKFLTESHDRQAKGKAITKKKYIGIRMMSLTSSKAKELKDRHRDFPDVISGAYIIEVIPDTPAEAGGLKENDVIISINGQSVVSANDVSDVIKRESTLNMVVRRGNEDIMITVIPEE
# assay protocol: holdup assay
# Parameters: key: below the threshold = too weak to quantify, mostly under pKd 3.1 to 4
# protocol conditions: plain residues with an end cap or a label only (N-terminal biotin on a linker: ado-ado)
observed property: pKd

INSERT INTO measurements (binder, meas_value) VALUES
  ('MHIQEKGFHV [EPHA6, Q9UF33]', 4.61),
  ('ARSAAASNYV [CLDN4, O14493]', 4.17),
  ('QSGLYESEEL [MYOT, Q9UBF9]', 4.17);

Taken from paper PMC9482650.
